Source: PubChem BioAssay AID488922

# assayed system: Potassium channel subfamily K member 9 (Homo sapiens) (UniProt Q9NPC2)
# Sequence (Q9NPC2 whole entry, looked up): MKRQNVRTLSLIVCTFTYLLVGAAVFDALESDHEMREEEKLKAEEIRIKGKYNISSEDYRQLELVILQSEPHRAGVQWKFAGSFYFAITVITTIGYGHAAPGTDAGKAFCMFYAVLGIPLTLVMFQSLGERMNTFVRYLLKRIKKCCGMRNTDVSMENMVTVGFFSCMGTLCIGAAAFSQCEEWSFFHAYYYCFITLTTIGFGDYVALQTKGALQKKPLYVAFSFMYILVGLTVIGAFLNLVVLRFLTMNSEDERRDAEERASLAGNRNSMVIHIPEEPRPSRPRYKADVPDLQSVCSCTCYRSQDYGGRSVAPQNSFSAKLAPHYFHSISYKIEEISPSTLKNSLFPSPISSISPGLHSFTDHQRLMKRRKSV
# test details: blockers of human TASK-3 (KCNK9) channel – HEK293 cells, thallium flux, primary screen (AID 488922)
# measurement setup: HEK293 KCNK9, FluxOR thallium flux fluorescence, at 10 µM
In all, about 310,000 compounds went through this assay and about 3,800 (1.2%) were called active.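 How the source made its calls: active means ratio B-score over 3 SD below the library mean, with starting fluorescence within 5 SD of its mean; inactive means the rest, inconclusive results apart.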 For the sample, actives were picked, then their nearest neighbours and some compounds at random.
Classes used: Y (active), N (inactive)

{"compound": "CCNC(=O)NC(=O)C(C)OC(=O)c1cc(S(=O)(=O)N2CCCCCC2)ccc1OC (stereo unspecified)", "answer label": "N"}
{"compound": "O=C(Cc1ccc(F)cc1)N1CCN=C1SCc1cccc([N+](=O)[O-])c1", "answer label": "N"}
{"compound": "COc1ccccc1C(=O)NN1C(=O)C2C3C=CC(O3)C2C1=O (stereo unspecified)", "answer label": "N"}
{"compound": "COc1ccc(OC)c(C(O)c2nc3ccccc3n2C)c1 (stereo unspecified)", "answer label": "Y"}
{"compound": "CS(=O)(=O)n1nc(-c2ccccc2)nc1NCc1ccco1", "answer label": "N"}
{"compound": "COc1ccc(-n2ncc3c2CC(C)(C)CC3NC(=O)CCc2c(C)noc2C)cc1 (stereo unspecified)", "answer label": "N"}
{"compound": "CCc1ccc(N(CC)c2ncnc3nc[nH]c23)cc1", "answer label": "N"}
{"compound": "C=CCNC(=O)COC(=O)c1ccccc1C(=O)N(C)C1CCCCC1", "answer label": "Y"}
{"compound": "COc1ccc(/C=N/NC(=O)c2ccccc2)cc1OS(=O)(=O)c1ccccc1", "answer label": "N"}
{"compound": "Cc1cc(Oc2ccc(Cl)cc2)nc(SCC(=O)c2ccccc2)n1", "answer label": "Y"}
{"compound": "CC(CC(=O)Nc1cc(C(F)(F)F)ccc1Cl)c1ccccc1 (stereo unspecified)", "answer label": "N"}
{"compound": "Cc1ccc2cccc(OCCCOc3ccccc3CO)c2n1", "answer label": "N"}
{"compound": "c1ccc(-c2nc(NCc3ccco3)c3ccccc3n2)cc1", "answer label": "Y"}
{"compound": "COc1ccc(C(=O)Nc2ccccc2C(=O)N/N=C/c2ccccc2OC)cc1", "answer label": "Y"}
{"compound": "COc1cccc(-c2coc3cc4oc(=O)c(CC(=O)O)c(C)c4cc23)c1", "answer label": "N"}
{"compound": "CN1CCN(CC#CCC2(O)c3ccccc3-c3ccccc32)CC1", "answer label": "N"}
{"compound": "O=C(Cc1ccc(S(=O)(=O)N2CCCC2)s1)NC1CCCCCC1", "answer label": "N"}
{"compound": "Cc1ccc(CN(N=Nc2nonc2N)c2nonc2N)c(C)c1", "answer label": "Y"}
{"compound": "CCc1noc(C)c1C(=O)Nc1nc(-c2ccccc2)cs1", "answer label": "N"}
{"compound": "CC(C)CC(CO)N1CCN(C(=O)c2ccc(Cl)cc2Cl)CCC1=O (stereo unspecified)", "answer label": "N"}
{"compound": "CCCn1c(C(O)c2cc(OC)ccc2OC)nc2ccccc21 (stereo unspecified)", "answer label": "N"}
{"compound": "Cc1ccc(OCCNC(=O)CN2C(=O)NC3(CCCC3)C2=O)cc1", "answer label": "N"}
{"compound": "COc1cccc(CC2(CO)CCCN(Cc3ccc(OC(F)F)cc3)C2)c1 (stereo unspecified)", "answer label": "N"}
{"compound": "C=CCn1c(SCC(=O)NC)nnc1C12CC3CC(CC(C3)C1)C2", "answer label": "N"}
{"compound": "Cc1cccc(CC(=O)N2CCN=C2SCc2ccc([N+](=O)[O-])cc2)c1", "answer label": "N"}
{"compound": "Cc1ccc2c(c1)N(CC(=O)N1CCC(O)CC1)C(=O)CO2", "answer label": "N"}
{"compound": "O=C(Nc1ccc(Cl)cc1)C1c2cccc[n+]2CC(=O)N1Cc1ccc2c(c1)OCO2 (stereo unspecified)", "answer label": "N"}
{"compound": "O=C(NN1C(=O)C2C3C=CC(O3)C2C1=O)c1ccccc1 (stereo unspecified)", "answer label": "N"}
{"compound": "CC(C)CC(COCc1ccc(Cl)cc1)N1CCN(C(=O)c2ccc(C(F)(F)F)cc2)CCC1=O (stereo unspecified)", "answer label": "Y"}
{"compound": "Cn1ncc2c(N3CCCCC3)nc(NCCCO)nc21", "answer label": "N"}
{"compound": "O=C(c1cc(Cl)cc(Cl)c1)N1CCC(=O)N(C(COCc2ccccc2)Cc2ccccc2)CC1 (stereo unspecified)", "answer label": "N"}
{"compound": "CCC1C(=O)NCCN1C(=O)c1ccc2nc(Cc3ccc(OC)cc3)oc2c1 (stereo unspecified)", "answer label": "N"}
{"compound": "COc1cc(/C=N/NC(=O)c2ccc(N3CCCC3=O)cc2)ccc1O", "answer label": "N"}
{"compound": "COc1ccc(C(=O)NN2C(=O)C3C(c4ccccc4)C=CC(c4ccccc4)C3C2=O)cc1 (stereo unspecified)", "answer label": "Y"}
{"compound": "CC(C)C[C@@H](CO)N1CCN(Cc2ccc(O)cc2)CCC1=O", "answer label": "N"}
{"compound": "Cc1nc2nc(SCC(=O)Nc3cccc(F)c3)[nH]c2cc1Br", "answer label": "N"}
